For each of the compounds below, state its activity at 25 µM.
Test system: hTNFtg SFs
Test: CCL5 and CCL20 ELISA on hTNFtg synovial fibroblasts
Assay type: cell-based, mice
Details: Mus musculus, Fibroblast; compound 25 μM; 48 h; read-out: CCL5 hTNFtg, percentage of level in untreated cells
Source text: Primary SFs were derived from a) human TNF transgenic (hTNFTg) mice (Keffer et al., 1991) as well as from b) CBA/C57BL6 wild type mice. hTNFtg mice overexpress human TNF, resulting in the spontaneous development of arthritis. […] Table 7 summarizes the reduction of CCL5 and CCL20 levels achieved with the test compounds of the invention. Data are presented as percentages of the chemokine levels detected in treated cells compared to 100% levels of the chemokines detected in the untreated cells. […]
Answers are plain numbers, in %.

Reference set (3 entries):
- line.notation: "COc1cc(N)c(Cl)cc1C(=O)NCC1(Nc2ccc(F)cc2Cl)CCCCCC1"
  measured.on: "hTNFtg SFs"
  recorded.number: 5
- line.notation: "COc1cc(N)c(Cl)cc1C(=O)NCC1(c2ccc(F)cc2Cl)CCCCCC1"
  measured.on: "hTNFtg SFs"
  recorded.number: 53.5
- line.notation: "COc1cc(N)c(Cl)cc1C(=O)NCC1(c2ccc(F)cc2)CCCCCC1"
  measured.on: "hTNFtg SFs"
  recorded.number: 40

Attention now turns to another entry.
So what does the record say about activity at 25 µM for `COc1cc(N)c(Cl)cc1C(=O)NCC1(Nc2cccc(OC(F)(F)F)c2)CCCCCC1` ?
0

* * *

System: SFs and PMCs
Assay: Compound cytotoxicity, Crystal Violet assay
Assay type: cell-based, mice
quantity.kind: Cell Toxicity

Reference set (2 entries):
- molecule: "COc1cc(N)c(Cl)cc1C(=O)NCC1(Nc2ccc(Cl)cc2)CCCCCC1 [Compound 53]"
  result: ">100 µM"
- molecule: "COc1cc(N)c(Cl)cc1C(=O)NCC1(c2ccc(F)cc2Cl)CCCCCC1 [Compound 58]"
  result: ">50 µM"

So what does the record say about Cell Toxicity for COc1cc(N)c(Cl)cc1C(=O)NCC1(c2ccc(Cl)cc2)CCCCC1 [Compound 51] ?
>100 µM

* * *

Tested on: hTNFtg SFs
Test: Legendplex pro-inflammatory chemokine panel on hTNFTg synovial fibroblasts
Type: cell-based, mice
Settings: compound 10 μM
For each of the compounds below, state its MCP1 hTNFTg, percentage of level in untreated cells.
Answers are plain numbers, in %.

- line.notation: "COc1cc(N)c(Cl)cc1C(=O)NCC1(Nc2ccc(Cl)cc2)CCCCCC1"
  recorded.number: 49.5
- line.notation: "COc1cc(N)c(Cl)cc1C(=O)NCC1(Nc2ccc(F)cc2Cl)CCCCCC1"
  recorded.number: 25.5
- line.notation: "COc1cc(N)c(Cl)cc1C(=O)NCC1(c2ccc(Cl)cc2)CCCCCC1"
  recorded.number: 55

Attention now turns to another entry.
So what does the record say about MCP1 hTNFTg, percentage of level in untreated cells for `COc1cc(N)c(Cl)cc1C(=O)NCC1(Nc2cccc(OC(F)(F)F)c2)CCCCCC1` ?
13.5

* * *

Test system: hTNFtg SFs
Assay: CCL5 and CCL20 ELISA on hTNFtg synovial fibroblasts
Assay type: cell-based, mice
Conditions: Mus musculus, Fibroblast; compound 25 μM; 48 h; read-out: CCL20 hTNFtg, percentage of level in untreated cells
For each of the compounds below, state its activity at 25 µM.

Reference set (3 entries):
- line.notation: "COc1cc(N)c(Cl)cc1C(=O)NCC1(c2ccc(F)cc2)CCCCCC1"
  activity at 25 µM: "25%"
- line.notation: "COc1cc(N)c(Cl)cc1C(=O)NCC1(Nc2ccc(F)cc2Cl)CCCCCC1"
  activity at 25 µM: "20%"
- line.notation: "COc1cc(N)c(Cl)cc1C(=O)NCC1(Nc2cccc(OC(F)(F)F)c2)CCCCCC1"
  activity at 25 µM: "29%"

Attention now turns to another entry.
So what does the record say about activity at 25 µM for `COc1cc(N)c(Cl)cc1C(=O)NCC1(c2ccc(F)cc2Cl)CCCCCC1` ?
22.5%

* * *

Test system: hTNFtg SFs
Assay: CCL5 and CCL20 ELISA on hTNFtg synovial fibroblasts
Assay type: cell-based, mice
Details: Mus musculus, Fibroblast; compound 10 μM; 48 h; read-out: CCL5 hTNFtg, percentage of level in untreated cells
For each of the compounds below, state its activity at 10 µM.

Reference set (5 entries):
- line.notation: "COc1cc(N)c(Cl)cc1C(=O)NCC1(c2ccc(F)cc2Cl)CCCCCC1"
  activity at 10 µM: "64%"
- line.notation: "COc1cc(N)c(Cl)cc1C(=O)NCC1(N2CCSCC2)CCCCCC1"
  activity at 10 µM: "69%"
- line.notation: "COc1cc(N)c(Cl)cc1C(=O)NCC1(c2ccc(Cl)cc2)CCCCCC1"
  activity at 10 µM: "50%"
- line.notation: "COc1cc(N)c(Cl)cc1C(=O)NCC1(Nc2ccc(F)cc2Cl)CCCCCC1"
  activity at 10 µM: "8.2%"
- line.notation: "COc1cc(N)c(Cl)cc1C(=O)NCC1(c2ccc(F)cc2)CCCCCC1"
  activity at 10 µM: "40%"

# per-item lookup of activity at 10 µM; items listed below
1. COc1cc(N)c(Cl)cc1C(=O)NCC1(Nc2ccc(Cl)cc2)CCCCCC1
2. COc1cc(N)c(Cl)cc1C(=O)NCC1(c2ccc(Cl)cc2)CCCCC1
3. COc1cc(N)c(Cl)cc1C(=O)NCC1(Nc2cccc(OC(F)(F)F)c2)CCCCCC1

1: 40%; 2: 46%; 3: 0%

* * *

Tested on: hTNFtg SFs
Test: CCL5 and CCL20 ELISA on hTNFtg synovial fibroblasts
Assay type: cell-based, mice
Settings: Mus musculus, Fibroblast; compound 50 μM; 48 h; read-out: CCL20 hTNFtg, percentage of level in untreated cells
quantity.kind: activity at 50 µM (%)
Give bare numbers, in %.

Reference set (3 entries):
- line.notation: "COc1cc(N)c(Cl)cc1C(=O)NCC1(c2ccc(Cl)cc2)CCCCC1"
  quantity.kind: "activity at 50 µM"
  unit.name: "%"
  recorded.number: 13
- line.notation: "COc1cc(N)c(Cl)cc1C(=O)NCC1(N2CCSCC2)CCCCCC1"
  quantity.kind: "activity at 50 µM"
  unit.name: "%"
  recorded.number: 27
- line.notation: "COc1cc(N)c(Cl)cc1C(=O)NCC1(Nc2ccc(Cl)cc2)CCCCCC1"
  quantity.kind: "activity at 50 µM"
  unit.name: "%"
  recorded.number: 22

Attention now turns to another entry.
So what does the record say about activity at 50 µM for `COc1cc(N)c(Cl)cc1C(=O)NCC1(c2ccc(Cl)cc2)CCCCCC1` ?
48
